Recorded activity at 10 µM by entry
test system: CTL2-GFP (C. trachomatis L2/434/Bu, GFP-expressing); construct: L2/434/Bu, GFP-expressing; assay: microbe, parasite or virus in culture; design: Intracellular C. trachomatis growth in HeLa cells, bulk GFP fluorescence relative to DMSO; conditions: Chlamydia trachomatis, HeLa, 28.5 h; bulk GFP, mean of 2; read-out: % of control remaining
Hi! Could you send only the number? It should be in %, unit omitted.

- Cc1ccc(Nc2ncc(C(=O)NCCCN3CCN(c4cccc(Cl)c4)CC3)c3ccccc23)cc1Cl: 70.2
- O=C(CSc1nnc(-c2cccnc2)o1)c1ccccc1: 1.98
- O=c1c2cnc3ccnn3c2ccn1C1CCCC1: 2.35
- NCc1ccc2cccc(O)c2n1 [CBK001376T]: 1.06
- O=C(NCCc1c[nH]c2ccc(Cl)cc12)c1c(F)ccc(Cl)c1F: 3.33
- CC(=O)Nc1ccc(S(=O)(=O)Nc2ccc(C(=O)Nc3ccc(F)cc3)cc2)cc1: 14.2
- COc1cccc(CNC(C(=O)O)c2ccc3c(c2)OCO3)c1 (centres unmarked) [CBK015420D]: 12.5

Now consider the entry below.
Quote activity at 10 µM with test system CTL2-GFP (C. trachomatis L2/434/Bu, GFP-expressing) for COc1ccc(Br)cc1C1CC(=O)Nc2c(-c3cccc(F)c3)csc21 (centres unmarked)
59.3

----------
test: in vitro; settings: human, hela cells, % viability
Metric name: viability at 28.5 h, 10 µM (%)
Number only, in %; omit the unit.

• CCN(Cc1ccc(C#N)cc1F)C(=O)NC(C)c1nncn1C (stereo not drawn) = 119
• CCCN1C(=O)N(CO)C2C1N(CO)C(=O)N2CCC (stereo not drawn) = 101
• Cc1cc(C(=O)CSc2nnnn2-c2ccc(O)cc2)c(C)n1Cc1ccc(F)cc1 = 98.8

Here is the next item to consider.
Using known records, supply viability at 28.5 h, 10 µM for `O=C(Cn1cnc2ccc([N+](=O)[O-])cc2c1=O)Nc1ccc(C(=O)O)cc1`
85.5

----------
Reported viability at 28.5 h, 10 µM values for the following compounds.
assay: in vitro; details: human, hela cells, % viability
Report the value in % with no unit label.

Some solved entries appear below for comparison.
- c1ccc2[nH]c(CN3CCC[C@@H]3CN3CCCC3)nc2c1 [CBK149102]: 85.9
- Cc1ccn(CCNC(=O)Cc2coc3cc(C)c(C)cc23)n1 [CBK282578]: 107
- CCCOc1ccc(C2(CCCCN3CCCC3)C(=O)Oc3ccc(C(C)(C)C)cc32)cc1 (centres unmarked) [CBK017655C]: 99.1
- CC(=O)NC[C@H]1CN(c2ccc(-c3nnc(CCC#N)s3)c(F)c2)C(=O)O1 [CBK017926]: 87.1

Kindly consider the entry below.
In one line, give reported viability at 28.5 h, 10 µM of the entry O=c1[nH]nc2c(S(=O)(=O)N3CCOCC3)cccn12 [CBK288469] .
94.1

----------
As shown below, each of these molecules has a reported viability at 28.5 h, 10 µM value.
experiment: in vitro; conditions: human, hela cells, % viability
Record the value in %, omitting the unit from your answer.

Some solved cases for reference:
- COc1ccc(C(=O)Nc2ccc3[nH]ccc3c2)cc1Cl [CBK159681]: 94
- NC(=O)CN1CCC(Oc2cncc(OCC3COc4ccccc4O3)n2)C1 (stereo not shown) [CBK084372]: 98.2
- CCCc1c(C(=O)NCCCN(C)C)cnn1-c1cc(Cl)cc(Cl)c1 [CBK107376]: 89.3
- Nc1ncc(Br)nc1N1CCC[C@@H]1CO [CBK085450]: 105
- CC(C)(C)c1ccc(C(O)CN2CCC(O)(c3ccc4c(c3)OCO4)CC2)cc1 (stereo not shown) [CBK286336]: 89.3
- Sc1nnc(-c2ccncc2)n1/N=C/c1c[nH]c2ccccc12 [CBK265272]: 85.8
- O=C(O)c1cccc(CSc2nnc(-c3ccncc3)o2)c1 [CBK266310]: 106
- COCCNC(=O)CSc1cc(Cl)nc(Cl)c1 [CBK020796]: 88.3

Quick one: give measured viability at 28.5 h, 10 µM for O=c1[nH]nc2ccc(S(=O)(=O)N3CCCCC3)cn12 [CBK288459]
89.5

Identify measured viability at 28.5 h, 10 µM associated with CCn1cc(Cl)c(C(=O)NC2CCN(c3cnccn3)CC2)n1 [CBK306922]
95.5

----------
test: in vitro; conditions: human, hela cells, % viability
Metric name: viability at 28.5 h, 10 µM (%)
Field format: number, assumed %, no unit text.

Guide cases for viability at 28.5 h, 10 µM, answers given:
- CN(C)C1=NC(N(C)C)=NP(N(C)C)(N(C)C)=N1: 91.8
- COc1cccc2c3c([nH]c12)C1(CCCN(CCc2ccc(F)cc2)C1)NCC3 (centres unmarked): 97.9

Quick one: give measured viability at 28.5 h, 10 µM for `O=C(Nc1nccc(-c2cc(OCC(F)(F)F)ccc2OCC(F)(F)F)n1)c1cccs1`
95.5

Indicate the recorded viability at 28.5 h, 10 µM value for this compound: `O=C(Nc1ccc(N2CCCCC2)c2ccncc12)c1cccc(-n2cnnn2)c1`
85.8

Return viability at 28.5 h, 10 µM (reported value) for this compound: `CCO/C(C)=C/c1sc2ccc3ccccc3c2[n+]1CCCS(=O)(=O)[O-]`
95.1

Quote viability at 28.5 h, 10 µM reported for CN(Cc1ccc(-c2ccc(S(C)(=O)=O)cc2)nc1)C1CCN(C(=O)CC2CCCCC2)CC1 [CBK164105T] please.
92.6

Determine its reported viability at 28.5 h, 10 µM: `O=C1CC2(CCCC2)C(=O)N1c1ccc(S(=O)(=O)NC2CCN(Cc3ccccc3)CC2)cc1Cl`
99.8

Give viability at 28.5 h, 10 µM for the following compound: `CC(C)[C@@H](N)C(=O)N1CC[C@@H]2NC(=O)[C@@H](Cc3ccccc3)NC(=O)C3(C/C=C/C[C@H]2C1)CCOCC3`
112

----------
viability at 28.5 h, 10 µM values, listed per item
assay: in vitro; settings: human, hela cells, % viability
Provide the reading as a plain figure in %.

Below, each entry is followed by its recorded viability at 28.5 h, 10 µM result.
• CC(NC(=O)N(Cc1cccc2ccccc12)C1CCC(N)CC1)c1cccc2ccccc12 (stereo not shown) [CBK000482C] = 67.8
• O=C(Nc1ccc2oc(-c3cccnc3)nc2c1)c1ccc(N2CCOCC2)c([N+](=O)[O-])c1 [CBK268664] = 100
• Cc1ccc(NC(=O)c2cc(NC(=O)C3CC=CCC3C(=O)O)ccc2N2CCOCC2)cc1Cl (stereo not shown) [CBK265323] = 105
• COc1cccc(C(=O)Nc2ccc(Br)cc2C(=O)O)c1 [CBK022487] = 98.7
• CCCC/N=C(\NS(=O)(=O)c1ccc(C)cc1)OCC [CBK022731] = 106
• COc1ccc(C2CCN(C(=O)C3CCCO3)CC2)cc1 (stereo not shown) [CBK285473] = 102
• CC(C)CNS(=O)(=O)c1ccc(N2CCCC2=O)cc1 [CBK304981] = 106
• CC[C@H](C)[C@H](NC(N)=O)C(=O)Nc1ccc(F)c([N+](=O)[O-])c1 [CBK297489] = 97.1
• CCOC(=O)CNS(=O)(=O)c1cccc(Cl)c1C [CBK004702] = 103
• CCNC(=O)c1ccccc1NC(=O)C(C)Oc1ccccc1 (stereo not shown) [CBK269933] = 85.8

State its viability at 28.5 h, 10 µM for this molecule: NC(=O)c1ccc(-c2cnc3[nH]c(=O)n(CCCN4CCOCC4)c3n2)cc1 [CBK065092]
102

Identify the reported viability at 28.5 h, 10 µM for the following entry. CC1(CNC(=O)c2ccccc2Cn2cccn2)COC1 [CBK281750]
89.4

Tell me viability at 28.5 h, 10 µM reported for CCCn1nc(C)c(-c2cncn2CCN(C)C2CCCC2)c1C [CBK281790]
91.3

Give the measured viability at 28.5 h, 10 µM for COCCn1cc(C(=O)N2CCCC2c2ccncc2)c2ccccc21 (stereo not shown) [CBK305286]
91.8

Read the entry OCc1ccccc1-c1cn2ccnc2c(Nc2ccc(N3CCOCC3)cc2)n1 [CBK037956] and write its reported viability at 28.5 h, 10 µM.
85.8

Please list viability at 28.5 h, 10 µM recorded for the molecule O=C(CCCc1nc2ccccc2c(=O)[nH]1)NC(Cc1ccc(O)cc1)C(=O)O (stereo not shown) [CBK297130]
101

Identify measured viability at 28.5 h, 10 µM corresponding to COc1cc2nnnn2c(-c2ccccc2)n1 [CBK026189]
102

Supply reported viability at 28.5 h, 10 µM belonging to this molecule: CCOC(=O)CCCCCCC(=O)N1CCN(c2ccc(C(F)(F)F)cc2)CC1 [CBK091327]
107

Assign viability at 28.5 h, 10 µM to the following record: COC(=O)c1cccc(CN2CCC3(CC2)NC(=O)Cc2ccccc23)c1 [CBK039807]
101

Reference source: paper PMC12040169
